Experiment: gradient 5% acetonitrile 3 min, to 50% in 2 min, to 85% in 15 min, held 3 min, 100 µL/min
Conditions: column: Zorbax Extend-C18 2.1 x 50 mm; eluents: water / acetonitrile, 0.1% formic acid
Lab note: compare RP-LC retention time with 700 s, writing 1 (yes) if less and 0 (no) if equal or more.

>>> label("Cc1cc(C)cc(N2CCC(NC(=O)NC(C)C)C2=O)c1 (stereo not given)")
"0 (no)"
>>> label("O=C(Cn1c(=O)c2cc(C3CC3)nn2c2ncccc21)Nc1cccc(Cl)c1")
"0 (no)"
>>> label("c1ccc(-n2ncc3c(NCc4ccc5c(c4)OCO5)ncnc32)cc1")
"0 (no)"
>>> label("CCn1c(CNC(=O)C2CCC2)nc2c1CN(S(=O)(=O)c1ccc(C)cc1)CC2")
"1 (yes)"
>>> label("CCOC(CCNC(=O)CCC(=O)Nc1ccc2nc(N3CCN(C)CC3)cc(C)c2c1)OCC")
"1 (yes)"
>>> label("Cc1ccsc1-c1nnc(CC(=O)N2CCN(Cc3ccccc3)CC2)o1")
"1 (yes)"
>>> label("Cc1ccc(-c2noc(-c3ccccc3S(=O)(=O)N3CCCCC3)n2)cc1")
"0 (no)"
>>> label("Fc1cccc(-c2nc(-c3cn(-c4cccc(F)c4)nn3)no2)c1")
"0 (no)"
>>> label("CCCN1C(=O)COc2ccc(-c3noc(-c4cccc(OC)c4OC)n3)cc21")
"0 (no)"
>>> label("Cn1nc(C(=O)N2CCCC2)c2c1CCN(C(=O)CCC(=O)NCCN1CCCCC1)C2")
"1 (yes)"
>>> label("COCCC1(NS(C)(=O)=O)CCN(C(=O)NCC(C)C)CC1")
"1 (yes)"
>>> label("Cc1ccc(Sc2nccnc2N2CCCC(C(=O)Nc3ccc(Br)cc3)C2)cc1 (stereo not given)")
"0 (no)"
>>> label("Cc1cc(C)c(S(=O)(=O)N(Cc2ccsc2)Cc2ccccn2)c(C)c1")
"0 (no)"
